assay: Subunit association by FPLC on Sephacryl S-100HR; type: physicochemical; conditions: Sephacryl S-100HR, 50 mM potassium phosphate, 500 mM NaCl

| MOLECULE | Structure (identified by FPLC) |
| --- | --- |
| TM2P46T-T78A: TM2 with 46th proline replaced with threonine and 78th threonine with alanine; SEQ ID NO: 14 (protein, Synthetic TM2 P46T-T78A) MSDVQSSLTGTWYNELNSKMELTANKDGTLTGKYLSKVGDVYVPYTLSGRYNLQPPAGQGVALGWAVSWENSKIHSAATWSGQFFSESSPVILTQWLLSSSTARGDVWESTLVGNDSFTKTAPTEQQIAHAQLHCRAPRLK | Tetramer |
| TM2 W80K: TM2 in which the 80th tryptophan was replaced with lysine; amino acid sequence SEQ ID NO: 4 (protein, Synthetic TM2 W80K) MSDVQSSLTGTWYNELNSKMELTANKDGTLTGKYLSKVGDVYVPYPLSGRYNLQPPAGQGVALGWAVSWENSKIHSATTKSGQFFSESSPVILTQWLLSSSTARGDVWESTLVGNDSFTKTAPTEQQIAHAQLHCRAPRLK | Tetramer |
